test system: MCF7; experiment: Cytotoxicity against human MCF7 cells assessed as cell viability after 48 hrs by MTT assay; assay type: functional, cell-based; settings: MCF7, 48 h
Listed below: pIC50 values for each entry.
Quick note: pIC50 means taking -log10 of the concentration in moles per liter.

input: // pIC50 lookup, key: C=C(C)[C@@H]1CC[C@]2(C)[C@H](CC[C@@H]3[C@@H]([C@]4(C)CC[C@H](C(C)(C)O)O4)CC[C@]32C)[C@@]1(C)CCC(=O)OC [METHYL SHOREATE]
output: 5.25

input: // pIC50 lookup, key: CC(C)(O)[C@@H]1CC[C@@](C)([C@H]2CC[C@]3(C)[C@@H]2CC[C@@H]2[C@@]4(C)CC[C@@H](O)[C@@](C)(CO)[C@@H]4CC[C@]23C)O1
output: 4.52
